system: TPO (gene 7173); test: CCTE_GLTED_hTPO: CCTE's human Thyroperoxidase (hTPO) Inhibition Assay, Great Lakes Toxicology and Ecology Division (GLTED) Lab
Records with an inconclusive call do not appear. The source made the active and inactive calls. How the source made its calls: active means hit-call score of the fitted dose curve at least 0.9, where 1 is the maximum; inconclusive means response in the unintended direction; inactive means score below 0.9.
Pick one and only one: t (active), f (inactive)

Solved entries (count: 4):
> print(dat)
                                   compound  class
1  O=C(Cl)C(F)(F)C(F)(F)C(F)(F)C(F)(F)C(F)(F)C(F)(F)C(F)(F)C(F)(F)F      f
2  O=C(Cl)C(F)(F)C(F)(F)C(F)(F)C(F)(F)C(F)(F)C(F)(F)F      t
3  O=C(O)C(F)(OC(F)(F)C(F)(OC(F)(F)C(F)(F)C(F)(F)F)C(F)(F)F)C(F)(F)F (stereo not given)      t
4                             Cn1cc[nH]c1=S      t

Please examine the following record next.
Query: Dear all, I need the recorded test outcome for FC(F)(F)C(F)(F)C(F)(F)C(F)(F)C(F)(F)C(F)(F)C(F)(F)C(F)(F)CCS , thank you.
Result: t

###

Tested on: TPO (gene 7173)
Assay: CCTE_GLTED_hTPO: CCTE's human Thyroperoxidase (hTPO) Inhibition Assay, Great Lakes Toxicology and Ecology Division (GLTED) Lab
Procedure: CCTE_GLTED_hTPO is a cell-free, single-readout assay designed to test the inhibitory activity of chemicals toward human thyroperoxidase (TPO) protein. Uninhibited enzyme converts Amplex UltraRed to a fluorescent product. Measurements were taken 0.5 hour after chemical dosing in a 96-well plate. CCTE_GLTED_hTPO is the assay component measured from the CCTE_GLTED_hTPO assay. […]
Inconclusive results are not listed. The source made the active and inactive calls. Rule for the calls: active = hit-call score of the fitted dose curve at least 0.9, where 1 is the maximum; inconclusive = response in the unintended direction; inactive = score below 0.9.
Assign a class; possible classes are YES for active, NO for inactive

Query: For FC(F)(F)C(F)(F)C(F)(F)C(F)(F)C(F)(F)C(F)(F)CCS , which call appears in the assay record?
Result: NO

Query: Okay, and O=C(O)C(F)(F)C(F)(F)C(F)(F)C(F)(F)C(F)(F)C(F)(F)C(F)(F)C(F)(F)Cl ?
Result: YES

Query: What would you report for O=S(=O)(OCC(F)(F)F)C(F)(F)C(F)(F)C(F)(F)C(F)(F)F ?
Result: YES

Query: For O=S(=O)(Cl)C(F)(F)C(F)(F)C(F)(F)C(F)(F)C(F)(F)C(F)(F)C(F)(F)C(F)(F)F then?
Result: YES

Query: Likewise for FC(F)=C(F)C(F)(F)C(F)(F)C(F)(F)C(F)(F)C(F)(F)C(F)(F)F ?
Result: YES
